tested on: Rattus norvegicus; test: Antiinflammatory activity in Wistar albino rat assessed as inhibition of formalin-induced paw edema at 50 mg/kg, po administered 1 hr prior to formalin challenge measured after 30 mins relative to control; type: functional
Label criterion met when inhibition in vivo at 50 mg/kg is at or above 90%; otherwise label criterion not met.

| SAMPLE_SMILES | SYSTEM | ASSIGNED_CATEGORY |
| --- | --- | --- |
| COc1cc2occc2c(OC)c1-c1cc(-c2ccc(C(F)(F)F)cc2)n(-c2ccc(S(N)(=O)=O)cc2)n1 | Rattus norvegicus | criterion not met |
| COc1cc2occc2c(OC)c1-c1cc(-c2ccc(F)cc2)n(-c2ccc(S(N)(=O)=O)cc2)n1 | Rattus norvegicus | criterion not met |
| Cc1ccc(-c2cc(C(F)(F)F)nn2-c2ccc(S(N)(=O)=O)cc2)cc1 | Rattus norvegicus | criterion met |
| COc1c(-c2cc(C(F)(F)F)nn2-c2ccc(S(N)(=O)=O)cc2)c(O)c(OC)c2occc12 | Rattus norvegicus | criterion not met |

---

Biological target: Prostaglandin G/H synthase 2 (Homo sapiens, UniProt P35354)
Sequence (P35354 whole entry): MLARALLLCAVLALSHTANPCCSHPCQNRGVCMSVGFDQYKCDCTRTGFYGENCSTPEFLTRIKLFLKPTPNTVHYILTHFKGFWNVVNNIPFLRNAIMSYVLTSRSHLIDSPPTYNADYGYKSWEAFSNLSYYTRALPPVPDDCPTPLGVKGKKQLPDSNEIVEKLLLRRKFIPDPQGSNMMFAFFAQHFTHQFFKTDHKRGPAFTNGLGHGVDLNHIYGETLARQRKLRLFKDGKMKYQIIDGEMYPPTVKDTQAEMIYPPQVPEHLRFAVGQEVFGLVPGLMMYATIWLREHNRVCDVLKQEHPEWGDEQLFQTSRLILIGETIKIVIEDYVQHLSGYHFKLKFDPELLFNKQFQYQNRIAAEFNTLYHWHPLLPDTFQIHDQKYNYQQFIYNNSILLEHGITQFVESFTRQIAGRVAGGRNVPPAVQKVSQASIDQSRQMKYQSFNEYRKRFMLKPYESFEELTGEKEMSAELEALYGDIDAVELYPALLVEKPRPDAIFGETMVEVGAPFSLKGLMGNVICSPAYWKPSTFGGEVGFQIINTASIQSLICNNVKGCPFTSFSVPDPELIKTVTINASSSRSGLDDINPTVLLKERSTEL
Experiment: Inhibition of human recombinant COX2 using arachidonic acid as substrate incubated for 10 mins prior to substrate addition measured after 2 mins by enzyme immunoassay
pIC50: −log10 of the molar value.
Use 5 as the dividing line for pIC50, with the line itself on the 1 (yes) side and lower values as 0 (no).

| SAMPLE_SMILES | SYSTEM | ASSIGNED_CATEGORY |
| --- | --- | --- |
| COc1cc2occc2c(OC)c1-c1cc(-c2ccc(F)cc2)n(-c2ccc(S(N)(=O)=O)cc2)n1 | Prostaglandin G/H synthase 2 (Homo sapiens, UniProt P35354) | 1 (yes) |
| COc1cc2occc2c(OC)c1-c1cc(-c2ccccc2)n(-c2ccc(S(N)(=O)=O)cc2)n1 | Prostaglandin G/H synthase 2 (Homo sapiens, UniProt P35354) | 0 (no) |
| COc1c(-c2cc(-c3cccnc3)nn2-c2ccc(S(N)(=O)=O)cc2)c(O)cc2occc12 | Prostaglandin G/H synthase 2 (Homo sapiens, UniProt P35354) | 1 (yes) |
| COc1c(-c2cc(C(F)(F)F)nn2-c2ccc(S(N)(=O)=O)cc2)c(O)c(OC)c2occc12 | Prostaglandin G/H synthase 2 (Homo sapiens, UniProt P35354) | 1 (yes) |
| COc1cc2occc2c(OC)c1-c1cc(-c2ccc(C(F)(F)F)cc2)n(-c2ccc(S(N)(=O)=O)cc2)n1 | Prostaglandin G/H synthase 2 (Homo sapiens, UniProt P35354) | 1 (yes) |
| COc1c(-c2cc(-c3cccnc3)nn2-c2ccc(S(N)(=O)=O)cc2)c(O)c(OC)c2occc12 | Prostaglandin G/H synthase 2 (Homo sapiens, UniProt P35354) | 1 (yes) |
| COc1cc2occc2c(OC)c1-c1cc(-c2ccc(Cl)cc2)n(-c2ccc(S(N)(=O)=O)cc2)n1 | Prostaglandin G/H synthase 2 (Homo sapiens, UniProt P35354) | 0 (no) |
| COc1c(-c2cc(C(F)(F)F)nn2-c2ccc(S(N)(=O)=O)cc2)c(O)cc2occc12 | Prostaglandin G/H synthase 2 (Homo sapiens, UniProt P35354) | 1 (yes) |
